# reported normalized growth; entries follow
Test: chemical genetic growth profiling, strain panel (AID 1159580);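 also: tested at 20 µM; growth read once vehicle control cultures reached saturation at 30 °C; 1 = growth at the plate median or of vehicle wells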
Conditions: S. cerevisiae deletion strains, growth OD, locus YBR231C, strain swc5, stronger effect = lower value
The whole screen tested about 5,500 compounds, of which about 2,000 (36%) were called active. Inconclusive results (about 18%) are left out. The list shows a part of the results.
Would you mind answering with just the numeric figure?

Worked examples follow.
# compound, normalized growth
records = [
    ("NC(CO)C(=O)NNCc1ccc(O)c(O)c1O (centres undefined)", 1),
    ("CC(C)COCC(CN(Cc1ccccc1)c1ccccc1)N1CCCC1 (centres undefined)", 1.01),
    ("C=C1CCC2C(CC2(C)C)C(=C)CC/C1=N\\O (centres undefined)", 1.01),
    ("Cc1cc(NC(=O)C2=C(O)c3ccccc3S(=O)(=O)N2C)no1", 0.972),
    ("CC(C)(C)CC(C)(C)c1ccc(O)c(Cc2ccc(Cl)cc2Cl)c1", 1.01),
    ("CCNC(=O)CC[C@H](N)C(=O)O", 0.997),
]

Consider the additional compound presented here.
Exam item: Look up and report measured normalized growth for this entry: CC1(C)O[C@H]2[C@H](O)C[C@](O)(C(N)=O)C[C@H]2O1
Marked response: 1.01

----------
Assay: chemical genetic growth profiling, strain panel (AID 1159580);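 also: tested at 20 µM; growth read once vehicle control cultures reached saturation at 30 °C; 1 = growth at the plate median or of vehicle wells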
Settings: S. cerevisiae deletion strains, growth OD, locus YNL183C, strain NPR1, stronger effect = lower value
About 2,000 (36%) of roughly 5,500 compounds were called active. Another 18% or so got no clear call; they are omitted. The list shows a part of the results.
Cut-off 0.9 on normalized growth: below means 1, at or above means 0.

Answered examples (6):
# compound, category
records = [
    ("Cc1cccc(Nc2ccccc2C(=O)O)c1C", 1),
    ("Cc1onc(-c2c(F)cccc2Cl)c1C(=O)NNc1cc(Cl)cc(Cl)c1", 0),
    ("CC[C@H](C)C(=O)O[C@H]1C[C@@H](C)C=C2C=C[C@H](C)[C@H](CC[C@@H]3C[C@@H](O)CC(=O)O3)[C@H]21", 0),
    ("CCCCCCCCCCCC(=O)NOC(=O)c1c(-c2c(Cl)cccc2Cl)noc1C", 1),
    ("CCOC(=O)[C@H](CCc1ccccc1)N[C@@H](C)C(=O)N1[C@H](C(=O)O)C[C@@H]2CCC[C@@H]21", 0),
    ("CO/N=C(\\C(=O)N[C@@H]1C(=O)N2C(C(=O)O)=C(CSc3nc(=O)c(O)nn3C)CS[C@H]12)c1csc(N)n1", 0),
]

Would you kindly look at the next entry?
Exam item: Threshold test, normalized growth < 0.9: O=C(Nc1ccc(OC(F)(F)F)cc1)N1CCN(c2nc(-c3ccccc3)ns2)CC1
Marked response: 1

----------
Test: chemical genetic growth profiling, strain panel (AID 1159580);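 also: tested at 20 µM; growth read once vehicle control cultures reached saturation at 30 °C; 1 = growth at the plate median or of vehicle wells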
Settings: S. cerevisiae deletion strains, growth OD, locus YJR043C, strain POL32, stronger effect = lower value
About 2,000 (36%) of roughly 5,500 compounds were called active. Inconclusive results (about 18%) are left out. The list shows a part of the results.
The label is satisfied for normalized growth below 1 and not satisfied for normalized growth equal to or exceeding 1.

Examples with answers:
# compound, category
data = [
    ("CCN(CC)CCNC(=O)c1c(-c2c(Cl)cccc2Cl)noc1C", "not satisfied"),
    ("CSC(=NS(=O)(=O)c1ccccc1)SC", "satisfied"),
    ("CCCCCCOc1ccccc1C(N)=O", "satisfied"),
    ("NC(N)=NS(=O)(=O)c1ccc(N)cc1", "not satisfied"),
]

Please turn your attention to the following entry.
Exam item: Dear colleague, could you confirm whether normalized growth of Nc1ccn(C2O[C@H](CO)[C@@H](O)[C@@H]2O)c(=O)n1 (some centres undefined) falls below 1? Thanks.
Marked response: not satisfied

// provenance: PubChem BioAssay AID1159580
